- tgt: Lethal factor (Bacillus anthracis) (UniProt P15917)
- test-summary: Lethal factor protease inhibitors, Bacillus anthracis, multiplex microsphere cleavage assay, validation set (AID 588461)
- experimental-conditions: flow cytometry, at 10 µM, stronger effect = higher value
assay-endpoint: inhibition (%)

[[record]]
compound = "CCOc1cccc(N2C(=O)CC(N(CCc3ccc(OC)c(OC)c3)C(=O)CC)C2=O)c1 (stereo not given)"
meas_value = 0.4

[[record]]
compound = "O=C(N1CCCCC1)C1(c2ccccc2)CCOCC1"
meas_value = -2.1

[[record]]
compound = "C[C@]12CC[C@@H]3c4ccc(O)cc4[C@@H](O)C[C@H]3[C@@H]1CC[C@@H]2O"
meas_value = 0.8

[[record]]
compound = "CC(C)CC(=O)NC(NC(=O)CC(C)C)c1cccc([N+](=O)[O-])c1"
meas_value = 3.9

[[record]]
compound = "CCN(Cc1ccncc1)Cc1nc(Cc2ccccc2Cl)no1"
meas_value = -2.6

[[record]]
compound = "CC(=O)OCC(=O)[C@@]1(OC(C)=O)[C@@H](C)C[C@H]2[C@@H]3C[C@H](F)C4=CC(=O)C=C[C@]4(C)[C@@]3(F)[C@@H](O)C[C@@]21C"
meas_value = -0.9

[[record]]
compound = "COc1ccc(-c2csc(-c3cccnc3)n2)cc1C"
meas_value = -5.1

[[record]]
compound = "C[C@]12CC[C@@H]3c4ccc(O)cc4CC[C@H]3[C@@H]1CC[C@@H]2O"
meas_value = -1.3

[[record]]
compound = "Cc1ncc([N+](=O)[O-])n1CC(C)O (stereo not given)"
meas_value = 0.3

[[record]]
compound = "OC(COCc1ccccc1)CN1CCN(Cc2ccc3c(c2)OCO3)CC1 (stereo not given)"
meas_value = 2.8

[[record]]
compound = "COc1ccc(-c2nc(C)c(C(C)=O)n2O)cc1OC"
meas_value = -3.9

[[record]]
compound = "Cc1ccc(S(=O)(=O)Nc2ccc(S(=O)(=O)Nc3cc(C)nc(C)n3)cc2)cc1"
meas_value = 0.7

[[record]]
compound = "CC(COc1ccccc1)NC(C)C(O)c1ccc(O)cc1 (stereo not given)"
meas_value = 0.2

[[record]]
compound = "Cn1cnc2c1c(=O)n(CC(O)CO)c(=O)n2C (stereo not given)"
meas_value = -1.4

[[record]]
compound = "CC12COC3(C(=O)Nc4ccc(F)cc4)CC1CCC32C (stereo not given)"
meas_value = -1.8

[[record]]
compound = "CN(C)c1cc(NC(=O)CN2CCOCC2)c2ccccc2n1"
meas_value = -4.6

[[record]]
compound = "Cc1ccc(CSCC(=O)NCCCN2CCOCC2)cc1"
meas_value = 3.8

[[record]]
compound = "O=C(O)[C@H](Cc1ccccc1)NC(=O)N1CCC(Cc2ccccc2)CC1"
meas_value = -2.3

[[record]]
compound = "COc1ccccc1N1CCN(CC(O)COc2cccc3ccccc23)CC1 (stereo not given)"
meas_value = -6.6

[[record]]
compound = "CC1(C)CC(=O)c2c(nc3ccccc3c2N)C1"
meas_value = 7.9

[[record]]
compound = "O=C1c2cccc3cccc(c23)C(=O)N1c1ccccn1"
meas_value = 1.1

[[record]]
compound = "CCOc1ccc2[nH]c3c(=O)n(CCc4ccc(OC)cc4)cnc3c2c1"
meas_value = 0.2

[[record]]
compound = "CN1CCN(CC/C=C2/c3ccccc3Sc3ccc(S(=O)(=O)N(C)C)cc32)CC1"
meas_value = 0

[[record]]
compound = "Cn1cc(CN2CCCC(CO)(Cc3cccc(Cl)c3)C2)cn1 (stereo not given)"
meas_value = -5.4

[[record]]
compound = "CC(C)CCc1noc(CN2CCC(CCN3CCCC3=O)CC2)n1"
meas_value = 3.1

[[record]]
compound = "COc1ccc(-c2cc3cc(OC)c(OC)cc3c(C)n2)cc1"
meas_value = 4.5

[[record]]
compound = "COc1ccc(CCn2c(C)nc3c(c(=O)c4ccccc4n3C)c2=O)cc1"
meas_value = 5.5

[[record]]
compound = "COc1ccc(-c2coc3c(CN4CCOCC4)c(O)ccc3c2=O)cc1"
meas_value = 4.1

[[record]]
compound = "N#C/C(C(N)=O)=c1/ccc2c(c1)N1C3=C(CCCC3)CC3CCCCC31N=2 (stereo not given)"
meas_value = -2.3

[[record]]
compound = "C=CCn1c(N2CCCCCC2)nc2c1c(=O)n(C)c(=O)n2C"
meas_value = -4.7

[[record]]
compound = "COc1ccc(OCC(=O)N2c3ccc(C)cc3C3CN(C)CCC32)cc1 (stereo not given)"
meas_value = -2.6

[[record]]
compound = "CC1(C)Cc2nc3oc4c(NCc5ccccc5)ncnc4c3cc2CO1"
meas_value = 2.2

[[record]]
compound = "CC1(C)CC(CNCCC(c2ccc(F)cc2)c2ccco2)CCO1 (stereo not given)"
meas_value = 3.4

[[record]]
compound = "CC(C)COc1ccc(Cc2cnc(N)nc2N)cc1"
meas_value = 1.9

[[record]]
compound = "NC12CC3CC(C1)CC(O)(C3)C2"
meas_value = -0.7

[[record]]
compound = "O=C(c1ccc([N+](=O)[O-])cc1)N1CCSC1c1ccccc1Cl (stereo not given)"
meas_value = -1.3

[[record]]
compound = "Cc1cc(-c2ccccc2)nnc1NCCN1CCOCC1"
meas_value = -2.3

[[record]]
compound = "COc1ccc(NC(=O)C2CCCN2C(=O)OC(C)(C)C)cc1 (stereo not given)"
meas_value = -2.4

[[record]]
compound = "COC(=O)C1=C(C)NC(C)=C([N+](=O)[O-])C1c1ccccc1C(F)(F)F (stereo not given)"
meas_value = -11.2

[[record]]
compound = "O=C1N=c2ccccc2=C1c1[nH]c(=S)[nH]c1O"
meas_value = 7

[[record]]
compound = "COc1cc(NS(=O)(=O)c2ccc(N)cc2)nc(OC)n1"
meas_value = 0.1

[[record]]
compound = "COc1ccc2cc(C(=O)Nc3ccc(S(N)(=O)=O)cc3)sc(=O)c2c1OC"
meas_value = 1.5

[[record]]
compound = "CC(=O)NC1C(OCCOc2ccc(Cl)cc2Cl)OC(COC(C)=O)C(OC(C)=O)C1OC(C)=O (stereo not given)"
meas_value = -0.7

[[record]]
compound = "CCOC(=O)C(=O)Nc1ccc(Oc2ccccc2)cc1"
meas_value = 1.3

[[record]]
compound = "O=C(Nc1cccc(Cl)c1)N1CCN2C(=O)c3ccccc3C12c1ccccc1 (stereo not given)"
meas_value = -4.4

